Target: SstF (SFN-sensing transcription factor, LysR family) (Xanthomonas campestris)
Sequence (Q8PAP2 1-344): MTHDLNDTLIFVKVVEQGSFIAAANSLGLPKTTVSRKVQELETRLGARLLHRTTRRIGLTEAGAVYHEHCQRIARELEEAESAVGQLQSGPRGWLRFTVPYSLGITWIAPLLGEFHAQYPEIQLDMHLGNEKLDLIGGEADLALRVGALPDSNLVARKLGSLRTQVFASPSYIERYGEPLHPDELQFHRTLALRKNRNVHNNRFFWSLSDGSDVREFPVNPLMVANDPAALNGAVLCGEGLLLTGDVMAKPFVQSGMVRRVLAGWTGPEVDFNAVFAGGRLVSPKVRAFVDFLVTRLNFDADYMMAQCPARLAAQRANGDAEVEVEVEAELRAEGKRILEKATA

molecule	Kd, nM
C[S+]([O-])CCCCN=C=S (stereo not shown) [SFN, Sulforaphane]	17.3
